# target_entity: UniProt:Q12809
# assay_name: Inhibition of human ERG expressed in CHO cells at 16 uM at -70mV holding potential measured after 300 secs by IonWorks electrophysiology method relative to control
# Assay type: cell-based
# condition_label: CHO cells expressing human ERG
readout: inhibition at 5 min, 16 µM (%)
One number for each entry, in %.

Entry CC1(O)CCN(c2nc(C3(c4ccc(-c5cnc(N)nc5)cc4)CCC3)no2)CC1 has what inhibition at 5 min, 16 µM?
45

====

# target_entity: hERG (KCNH2) (Homo sapiens)
# Sequence (Q12809 whole entry): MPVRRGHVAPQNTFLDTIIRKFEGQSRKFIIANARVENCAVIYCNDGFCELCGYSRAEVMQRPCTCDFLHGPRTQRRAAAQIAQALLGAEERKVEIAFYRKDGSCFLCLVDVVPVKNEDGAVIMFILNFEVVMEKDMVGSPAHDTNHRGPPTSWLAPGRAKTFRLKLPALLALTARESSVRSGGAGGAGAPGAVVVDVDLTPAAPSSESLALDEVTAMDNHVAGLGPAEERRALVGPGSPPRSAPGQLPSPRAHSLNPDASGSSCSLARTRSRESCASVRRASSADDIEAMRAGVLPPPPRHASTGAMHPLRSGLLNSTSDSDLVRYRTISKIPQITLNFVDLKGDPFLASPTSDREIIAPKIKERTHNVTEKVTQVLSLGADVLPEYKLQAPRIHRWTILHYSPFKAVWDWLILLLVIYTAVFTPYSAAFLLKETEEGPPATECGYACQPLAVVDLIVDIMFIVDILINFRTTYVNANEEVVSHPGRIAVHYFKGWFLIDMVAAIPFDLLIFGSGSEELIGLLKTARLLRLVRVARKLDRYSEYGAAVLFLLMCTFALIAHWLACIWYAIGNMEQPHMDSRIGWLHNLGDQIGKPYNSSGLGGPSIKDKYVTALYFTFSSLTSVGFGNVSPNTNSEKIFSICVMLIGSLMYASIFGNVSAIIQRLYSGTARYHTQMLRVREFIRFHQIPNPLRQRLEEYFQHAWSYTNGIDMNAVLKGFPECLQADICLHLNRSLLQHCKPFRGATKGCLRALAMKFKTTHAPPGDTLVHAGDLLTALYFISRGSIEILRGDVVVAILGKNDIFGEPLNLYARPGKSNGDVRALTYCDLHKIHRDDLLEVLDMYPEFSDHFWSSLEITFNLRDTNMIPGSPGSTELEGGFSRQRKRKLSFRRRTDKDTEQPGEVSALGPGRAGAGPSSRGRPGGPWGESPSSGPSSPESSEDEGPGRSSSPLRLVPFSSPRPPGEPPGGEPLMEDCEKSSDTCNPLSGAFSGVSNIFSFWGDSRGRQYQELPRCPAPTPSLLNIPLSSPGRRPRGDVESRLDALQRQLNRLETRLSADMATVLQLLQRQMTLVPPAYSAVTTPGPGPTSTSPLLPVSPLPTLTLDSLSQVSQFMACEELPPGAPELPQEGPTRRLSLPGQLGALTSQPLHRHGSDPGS
# assay_name: Inhibition of human ERG expressed in CHO cells at 12 uM at -70mV holding potential measured after 300 secs by IonWorks electrophysiology method relative to control
# Format: cell-based
# condition_label: CHO cells expressing human ERG
readout: inhibition at 5 min, 12 µM (%)
One number for each entry, in %.

Entry Nc1ncc(-c2ccc(C3(c4noc(N5CC(O)C5)n4)CCC3)cc2)cn1 has what inhibition at 5 min, 12 µM?
18

====

# target_entity: Arachidonate 5-lipoxygenase-activating protein (Homo sapiens)
# assay_name: Displacement of [125I]-L-691831 from human FLAP expressed in Sf9 cell membranes after 2 hrs by Topcount method
pIC50: −log10 of the molar value.
Each record's class is read off its pIC50 using these ranges: one = under 7, two = from 7 up to 8, three = 8 and over

Solved entries:
structure_string	assigned_class
CN(C)C(=O)Cn1cc(-c2nc([C@@](C)(c3ccc(-c4cnc(N)nc4)nc3)C3CC3)no2)cn1	three
CN(c1cnn(C)c1)c1nc([C@@](C)(c2ccc(-c3cnc(N)nc3)cc2)C2CC2)no1	two
N#CCCn1cc(-c2nc(C3(c4ccc(-c5cnc(N)nc5)cc4)CCC3)no2)cn1	three
CC(C)OC1CCN(c2nc(C3(c4ccc(-c5cnc(N)nc5)cc4)CCC3)no2)CC1	two

Kindly identify the class of CC(C)[C@](C)(c1ccc(-c2cnc(N)nc2)nc1)c1noc(-c2cnn(CC#N)c2)n1 .
two

Kindly identify the class of Cn1cc(-c2nc([C@@](C)(c3ccc(-c4cnc(N)nc4)nc3)C3CC3)no2)cn1 .
three

Kindly identify the class of CC(C)(O)CN1CCN(c2nc([C@@](C)(c3ccc(-c4cnc(N)nc4)cc3)C3CC3)no2)CC1 .
two

Kindly identify the class of CC(C)[C@](C)(c1ccc(-c2cnc(N)nc2)nc1)c1noc(-c2cnn(CC(=O)N(C)C)c2)n1 .
two

Kindly identify the class of C[C@@](c1ccc(-c2cnc(N)nc2)nc1)(c1noc(-c2cnn(C3COC3)c2)n1)C1CC1 .
three

====

# assay_name: Stability in human liver microsomes at 1 uM pretreated for 10 mins followed by NADPH addition after 60 mins by LC/MS analysis relative to hepatic blood flow
# Assay type: ADME, microsome
# condition_label: read-out: Stability
readout: hepatic extraction ratio at 1 h, 1 µM

In the examples that follow, each entry is paired with its recorded hepatic extraction ratio at 1 h, 1 µM.
structure_string	readout	experimental_value
CC(C)[C@](C)(c1ccc(-c2cnc(N)nc2)nc1)c1noc(-c2cnn(CC(=O)N(C)C)c2)n1	hepatic extraction ratio at 1 h, 1 µM	< 0.3
Nc1ncc(-c2ccc(C3(c4noc(N5CCC(O)CC5)n4)CCC3)cc2)cn1	hepatic extraction ratio at 1 h, 1 µM	< 0.24
Nc1ncc(-c2ccc(C3(c4noc(N5CC[C@H](O)C5)n4)CCC3)cc2)cn1	hepatic extraction ratio at 1 h, 1 µM	< 0.24
Nc1ncc(-c2ccc(C3(c4noc(N5CC(O)C5)n4)CCC3)cc2)cn1	hepatic extraction ratio at 1 h, 1 µM	< 0.24

Please give hepatic extraction ratio at 1 h, 1 µM, item by item, for the list that follows.
1. CC(C)[C@](C)(c1ccc(-c2cnc(N)nc2)nc1)c1noc(-c2cnn(C3COC3)c2)n1
2. CC1(O)CCN(c2nc([C@@](C)(c3ccc(-c4cnc(N)nc4)cc3)C3CC3)no2)CC1
3. CN(C)C(=O)N1CCN(c2nc([C@@](C)(c3ccc(-c4cnc(N)nc4)cc3)C3CC3)no2)CC1

1: < 0.3; 2: 0.58; 3: 0.52

Please give hepatic extraction ratio at 1 h, 1 µM, item by item, for the list that follows.
1. CC(C)[C@](C)(c1ccc(-c2cnc(N)nc2)nc1)c1noc(-c2cnn(CC#N)c2)n1
2. CC(C)[C@](C)(c1ccc(-c2cnc(N)nc2)nc1)c1noc(-c2cnn(CC(C)(C)O)c2)n1

["< 0.24", "< 0.3"]

====

# assay_name: Aqueous kinetic solubility of the compound at pH 7.4
# Assay type: physicochemical
# condition_label: aqueous, read-out: Kinetic_solubility
Please provide measured solubility kinetic for the entries that follow.

structure_string	solubility kinetic
Nc1ncc(-c2ccc(C3(c4noc(N5CCC(O)CC5)n4)CCC3)cc2)cn1	> 39 µg/mL
Nc1ncc(-c2ccc(C3(c4noc(-c5cnn(C6COC6)c5)n4)CCC3)cc2)cn1	> 41 µg/mL

Please give solubility kinetic, item by item, for the list that follows.
1. N#CCCn1cc(-c2nc(C3(c4ccc(-c5cnc(N)nc5)nc4)CCC3)no2)cn1
2. N#CCCn1cc(-c2nc(C3(c4ccc(-c5cnc(N)nc5)cc4)CCC3)no2)cn1
3. CCn1cc(-c2nc(C3(c4ccc(-c5cnc(N)nc5)nc4)CCC3)no2)cn1

> 40 µg/mL
17 µg/mL
> 38 µg/mL

Please give solubility kinetic, item by item, for the list that follows.
1. Cc1cc(-c2nc(C3(c4ccc(-c5cnc(N)nc5)cc4)CCC3)no2)[nH]n1
2. Cn1cc(-c2nc(C3(c4ccc(-c5cnc(N)nc5)nc4)CCC3)no2)cn1
3. CC(C)(CO)n1cc(-c2nc(C3(c4ccc(-c5cnc(N)nc5)cc4)CCC3)no2)cn1

1. 3 µg/mL
2. 24 µg/mL
3. > 43 µg/mL

====

Please provide measured pIC50 for the entries that follow.
# target_entity: Arachidonate 5-lipoxygenase-activating protein (Homo sapiens, UniProt P20292)
# Sequence (P20292 whole entry): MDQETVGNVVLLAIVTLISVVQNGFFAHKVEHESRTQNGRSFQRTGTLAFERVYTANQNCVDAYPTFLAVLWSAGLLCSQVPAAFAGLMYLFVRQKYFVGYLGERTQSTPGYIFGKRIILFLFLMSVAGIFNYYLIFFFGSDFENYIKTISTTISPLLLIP
# assay_name: Displacement of [125I]-L-691831 from human FLAP expressed in Sf9 cell membranes after 2 hrs by Topcount method
One number for each entry, as −log10 of the molar value.

In the examples that follow, each entry is paired with its recorded pIC50.
structure_string	readout	experimental_value
CC(C)[C@](C)(c1ccc(-c2cnc(N)nc2)nc1)c1noc(-c2cnn(C)c2)n1	pIC50	7.80
CC1(O)CCN(c2nc([C@@](C)(c3ccc(-c4cnc(N)nc4)nc3)C3CC3)no2)CC1	pIC50	7.01
CN(C)C(=O)N1CCN(c2nc([C@@](C)(c3ccc(-c4cnc(N)nc4)cc3)C3CC3)no2)CC1	pIC50	7.92

Please give pIC50, item by item, for the list that follows.
1. N#CCCn1cc(-c2nc(C3(c4ccc(-c5cnc(N)nc5)nc4)CCC3)no2)cn1
2. CC1(O)CN(c2nc([C@@](C)(c3ccc(-c4cnc(N)nc4)cc3)C3CC3)no2)C1
3. CC1(O)CCN(c2nc([C@@](C)(c3ccc(-c4cnc(N)nc4)cc3)C3CC3)no2)CC1

[7.96, 7.80, 8.25]

Please give pIC50, item by item, for the list that follows.
1. CC(C)[C@](C)(c1ccc(-c2cnc(N)nc2)nc1)c1noc(-c2cnn(C3COC3)c2)n1
2. C[C@@](c1ccc(-c2cnc(N)nc2)nc1)(c1noc(N2CCC(O)CC2)n1)C1CC1
3. Nc1ncc(-c2ccc(C3(c4noc(N5CCNCC5)n4)CCC3)cc2)cn1
4. C[C@@](c1ccc(-c2cnc(N)nc2)nc1)(c1noc(-c2cnn(CC#N)c2)n1)C1CC1
5. Nc1ncc(-c2ccc(C3(c4noc(N5CC(O)C5)n4)CCC3)cc2)cn1

[8.18, 6.36, 6.49, 8.09, 6.80]
